Data provenance is paper PMC10896221.

biological target: Cucumis melo agglutinin (CMA1) (Cucumis melo, UniProt A0A1S4E5V9)
Sequence (A0A1S4E5V9 entry or part of it): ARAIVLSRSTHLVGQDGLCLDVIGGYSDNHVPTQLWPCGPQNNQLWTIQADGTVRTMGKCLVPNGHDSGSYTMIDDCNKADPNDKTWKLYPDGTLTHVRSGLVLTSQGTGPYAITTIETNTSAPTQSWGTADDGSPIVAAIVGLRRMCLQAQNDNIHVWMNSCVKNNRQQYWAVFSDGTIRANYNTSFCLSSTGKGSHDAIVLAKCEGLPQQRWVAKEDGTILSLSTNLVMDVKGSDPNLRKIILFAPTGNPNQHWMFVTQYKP
endpoint: IC50 (nM)

# molecule, result unit, measured
rows = [
    ("CC(=O)N[C@@H]1[C@@H](O)[C@H](O[C@@H]2O[C@H](CO)[C@H](O)[C@H](O)[C@H]2O)[C@@H](CO)O[C@@H]1O [LacNAc, N-acetyllactosamine]", "nM", 1400),
]

###

target: Cucumis melo agglutinin (CMA1) (Cucumis melo, UniProt A0A1S4E5V9, L33V); construct: CMA1-Nter, N-terminal domain (6–132 in mature protein); assay: X-ray crystal structure ([…] Å) and ITC; thermal shift with full-length protein
Sequence (A0A1S4E5V9 entry or part of it L33V): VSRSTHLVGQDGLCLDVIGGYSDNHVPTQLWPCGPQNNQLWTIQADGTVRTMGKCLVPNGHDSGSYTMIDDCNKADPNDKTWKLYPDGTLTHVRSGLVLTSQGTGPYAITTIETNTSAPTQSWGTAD
pKd: −log10 of the molar value.
endpoint: pKd

# structure smiles string, measured
data = [
    ("CC(=O)N[C@@H]1[C@@H](O)[C@@H](O)[C@@H](CO)O[C@H]1O", 3.03),
]
